Values from patent US6855695B2

# ASSAY_NAME: Aqueous stability in potassium phosphate buffers (50 mM), pH 3, 5, 7 and 9, HPLC
# Format: physicochemical
# SETUP_CONDITIONS: potassium phosphate buffer 50 mM, pH 5, room temperature (22-25° C.), read-out: Half-life, pH 5 (converted)
ENDPOINT: half-life at 50 μg/mL (days)

[
  {
    "COMPOUND": "CNC(=O)N(N(CCCl)S(C)(=O)=O)S(C)(=O)=O [VNP40101M]",
    "MEASURED": 118
  }
]

###

Here the recorded solubility at 24 h is given for each entry.
# ASSAY_NAME: Water-solubility at room temperature
# Assay type: physicochemical
# SETUP_CONDITIONS: thermodynamic from solid
ENDPOINT: solubility at 24 h (mg/mL)

[
  {
    "COMPOUND": "CN(Cc1ccc(OP(=O)(O)O)cc1)C(=O)N(N(CCCl)S(C)(=O)=O)S(C)(=O)=O [PAP-101M (19)]",
    "RESULT_MODIFIER": "=",
    "MEASURED": 293
  },
  {
    "COMPOUND": "CN(Cc1ccccc1OP(=O)([O-])[O-])C(=O)N(N(CCCl)S(C)(=O)=O)S(C)(=O)=O.[Na+].[Na+] [OAP-Na-101M (22a)]",
    "RESULT_MODIFIER": ">",
    "MEASURED": 1350
  },
  {
    "COMPOUND": "CN(Cc1ccccc1OP(=O)(O)O)C(=O)N(N(CCCl)S(C)(=O)=O)S(C)(=O)=O [OAP-101M (20a)]",
    "RESULT_MODIFIER": "=",
    "MEASURED": 46
  },
  {
    "COMPOUND": "CN(Cc1ccc(OP(=O)([O-])[O-])cc1)C(=O)N(N(CCCl)S(C)(=O)=O)S(C)(=O)=O.[Na+].[Na+] [PAP-Na-101M (21)]",
    "RESULT_MODIFIER": ">",
    "MEASURED": 980
  }
]

###

# ASSAY_NAME: Aqueous stability in potassium phosphate buffers (50 mM), pH 3, 5, 7 and 9, HPLC
# Assay type: physicochemical
# SETUP_CONDITIONS: potassium phosphate buffer 50 mM, pH 9, room temperature (22-25° C.), read-out: Half-life, pH 9 (converted)
# Protocol: The stabilities of PAP-101M (19), OAP-101M (20a), and VNP40101M were investigated in potassium phosphate buffers (50 mM) at pH 3, 5, 7 and 9 and at room temperature (22-25° C.). One sample was prepared at each pH for each drug; the initial drug concentration in each sample was 50 μg/mL. Each sample was analyzed by HPLC repetitively, at various time points, to determine the concentration of the respective drug. The first-order kinetic half-lives of each drug were calculated.
Here the recorded half-life at 50 μg/mL is given for each entry.

[
  {
    "COMPOUND": "CN(Cc1ccccc1OP(=O)(O)O)C(=O)N(N(CCCl)S(C)(=O)=O)S(C)(=O)=O [OAP-101M (20a)]",
    "half-life at 50 μg/mL, days": 171
  },
  {
    "COMPOUND": "CNC(=O)N(N(CCCl)S(C)(=O)=O)S(C)(=O)=O [VNP40101M]",
    "half-life at 50 μg/mL, days": 0.00479
  }
]

###

# ASSAY_NAME: Stability in 100% human plasma
# Assay type: in vitro ADME
# SETUP_CONDITIONS: both sexes, 37° C.
Here the recorded half-life at 50 μg/mL is given for each entry.
ENDPOINT: half-life at 50 μg/mL (min)

[
  {
    "MOLECULE": "CN(Cc1ccc(OP(=O)(O)O)cc1)C(=O)N(N(CCCl)S(C)(=O)=O)S(C)(=O)=O [PAP-101M (19)]",
    "ENDPOINT": "half-life at 50 μg/mL",
    "MEASURED": 34.3
  },
  {
    "MOLECULE": "CN(Cc1ccccc1OP(=O)(O)O)C(=O)N(N(CCCl)S(C)(=O)=O)S(C)(=O)=O [OAP-101M (20a)]",
    "ENDPOINT": "half-life at 50 μg/mL",
    "MEASURED": 53.3
  },
  {
    "MOLECULE": "CNC(=O)N(N(CCCl)S(C)(=O)=O)S(C)(=O)=O [VNP40101M]",
    "ENDPOINT": "half-life at 50 μg/mL",
    "MEASURED": 14.5
  }
]

###

# ASSAY_NAME: Pharmacokinetic study in rats, single iv bolus, HPLC-UV
# Type: in vivo, female Sprague-Dawley rats
# SETUP_CONDITIONS: female, Sprague-Dawley; rat, iv bolus 50 mg/kg, plasma
# Protocol: Preliminary investigations of the pharmacokinetic profiles of prodrugs 19 and 20a were conducted in female Sprague-Dawley rats (10 weeks old, 250 g, Charles River). […] Bioanalytical methods were developed to quantify these prodrugs in rat plasma using HPLC-UV at either 220 nm or 230 nm. […] The extract was separated by centrifugation and analyzed directly by HPLC-UV. […]

[
  {
    "COMPOUND": "CN(Cc1ccccc1OP(=O)(O)O)C(=O)N(N(CCCl)S(C)(=O)=O)S(C)(=O)=O [OAP-101M (20a)]",
    "UNIT_ABBREVIATION": "ng·h/mL",
    "AUC": 21900
  }
]

###

# System: alkaline phosphatase
# ASSAY_NAME: In vitro enzymatic bioconversion by alkaline phosphatase
# Format: in vitro ADME
# SETUP_CONDITIONS: bovine, alkaline phosphatase from bovine intestinal mucosa; approx. 0.055 unit/mL AP in 50 mM Tris buffered saline pH 7.6, 37° C., drug approx. 50 μg/mL
Here the recorded half-life at 50 μg/mL is given for each entry.
ENDPOINT: half-life at 50 μg/mL (min)

[
  {
    "COMPOUND": "CN(Cc1ccc(OP(=O)(O)O)cc1)C(=O)N(N(CCCl)S(C)(=O)=O)S(C)(=O)=O [PAP-101M (19)]",
    "TEST_SYSTEM": "alkaline phosphatase",
    "UNIT_ABBREVIATION": "min",
    "MEASURED": 21.1
  },
  {
    "COMPOUND": "CN(Cc1ccccc1OP(=O)(O)O)C(=O)N(N(CCCl)S(C)(=O)=O)S(C)(=O)=O [OAP-101M (20a)]",
    "TEST_SYSTEM": "alkaline phosphatase",
    "UNIT_ABBREVIATION": "min",
    "MEASURED": 29
  }
]

###

# ASSAY_NAME: Pharmacokinetic study in rats, single iv bolus, HPLC-UV
# Assay type: in vivo, female Sprague-Dawley rats
# SETUP_CONDITIONS: female, Sprague-Dawley; rat, iv bolus 50 mg/kg, plasma

[
  {
    "COMPOUND": "CN(Cc1ccccc1OP(=O)(O)O)C(=O)N(N(CCCl)S(C)(=O)=O)S(C)(=O)=O [OAP-101M (20a)]",
    "Cmax (µg/mL)": 239
  }
]

###

# ASSAY_NAME: Water-solubility at room temperature
# Assay type: physicochemical
# SETUP_CONDITIONS: thermodynamic from solid, determined visually by incremental addition, not at equilibrium
Here the recorded solubility is given for each entry.
ENDPOINT: solubility

[
  {
    "MOLECULE": "CN(Cc1ccc(OP(=O)([O-])[O-])cc1)C(=O)N(N(CCCl)S(C)(=O)=O)S(C)(=O)=O.[Na+].[Na+] [PAP-Na-101M (21)]",
    "ENDPOINT": "solubility",
    "MEASURED": "> 980 mg/mL"
  },
  {
    "MOLECULE": "CN(Cc1ccccc1OP(=O)([O-])[O-])C(=O)N(N(CCCl)S(C)(=O)=O)S(C)(=O)=O.[Na+].[Na+] [OAP-Na-101M (22a)]",
    "ENDPOINT": "solubility",
    "MEASURED": "> 1350 mg/mL"
  }
]

###

# ASSAY_NAME: Aqueous stability in potassium phosphate buffers (50 mM), pH 3, 5, 7 and 9, HPLC
# Type: physicochemical
# SETUP_CONDITIONS: potassium phosphate buffer 50 mM, pH 7, room temperature (22-25° C.), read-out: Half-life, pH 7 (converted)

[
  {
    "COMPOUND": "CNC(=O)N(N(CCCl)S(C)(=O)=O)S(C)(=O)=O [VNP40101M]",
    "half-life at 50 μg/mL, h": 12.2
  }
]
